# Test system: HT-29
# assayOverview: SRB colorimetric assay of cell growth and viability, HT-29
# Assay type: cell-based, human
# settings: read-out: LC50 (lethal concentration at 50%); HT-29 cells, 48 hours exposure, SRB
Where a SMILES comes first, the peptide text is derived from it. Bridges are numbered along the chain shown (N, C = ends). [ ]: non-standard residue; d: D form. The star is where a group is joined. d(aIle) = CC[C@H](C)[C@@H](N)C(=O)O; d(aThr) = C[C@@H](O)[C@@H](N)C(=O)O; Hexanoyl(5-Me) = CC(C)CCCC(=O)*; Orn = NCCC[C@H](N)C(=O)O; Dhb = C/C=C(\N)C(=O)O
The entries below are paired with their reported CC50.
In your response, put the unit directly after the numeric value.

In the examples that follow, each entry is paired with its recorded CC50.
molecule | CC50
C/C=C1\NC(=O)[C@H](Cc2ccccc2)NC(=O)[C@@H](C(C)C)NC(=O)[C@@H]([C@@H](C)CC)NC(=O)[C@H](NC(=O)[C@@H](CS)NC(=O)[C@H](CCCN)NC(=O)[C@H]2CCCN2C(=O)[C@H](NC(=O)[C@H](CS)NC(=O)[C@@H](NC(=O)[C@H](NC(=O)CCCC(C)C)C(C)C)[C@@H](C)O)C(C)C)[C@@H](C)OC(=O)[C@H](C(C)C)NC1=O [Compound 107, [D-Cys^7, L-Cys^11]-KF] ({Hexanoyl(5-Me)}-[dV]TC[dV][dP][Orn][dC][d(aThr)][d(aIle)][dV]F[Dhb]V; ester 8-C) | 6.8 µM
C/C=C1\NC(=O)[C@H](Cc2ccccc2)NC(=O)[C@@H](C(C)C)NC(=O)[C@@H]([C@@H](C)CC)NC(=O)[C@H](NC(=O)[C@H](NC(=O)[C@H](CCCN)NC(=O)[C@H]2CCCN2C(=O)[C@H](NC(=O)[C@@H](NC(=O)[C@@H](NC(=O)[C@H](NC(=O)CCCC(C)C)C(C)C)[C@@H](C)O)C(C)C)C(C)C)[C@H](C)CC)[C@@H](C)OC(=O)[C@H](C(C)C)NC1=O [Compound 104, [D-Ile^7]-KF] | 0.371 µM

Name the recorded CC50 of the item C/C=C1\NC(=O)[C@H](Cc2ccccc2)NC(=O)[C@@H](C(C)C)NC(=O)[C@@H]([C@@H](C)CC)NC(=O)[C@H](NC(=O)[C@H](NC(=O)[C@H](CCCN)NC(=O)[C@H]2CCCN2C(=O)[C@H](NC(=O)[C@@H](NC(=O)[C@@H](NC(=O)[C@H](NC(=O)[C@]23CCC(C)(C)C[C@H]2C2=CC[C@@H]4[C@@]5(C)C[C@@H](O)[C@H](O)C(C)(C)[C@@H]5CC[C@@]4(C)[C@]2(C)CC3)C(C)C)[C@@H](C)O)C(C)C)C(C)C)[C@@H](C)CC)[C@@H](C)OC(=O)[C@H](C(C)C)NC1=O [Compound 101, [AM^14]-KF] in your answer.
4.86 µM

###

# Test system: PANC-1
# assayOverview: SRB colorimetric assay of cell growth and viability, PANC-1
# Type: cell-based, human
# settings: 48 hours exposure, SRB; read-out: LC50 PANC-1
Where a SMILES comes first, the peptide text is derived from it. Bridges are numbered along the chain shown (N, C = ends). [ ]: non-standard residue; d: D form. The star is where a group is joined. d(aIle) = CC[C@H](C)[C@@H](N)C(=O)O; d(aThr) = C[C@@H](O)[C@@H](N)C(=O)O; Hexanoyl(5-Me) = CC(C)CCCC(=O)*; Orn = NCCC[C@H](N)C(=O)O; Dhb = C/C=C(\N)C(=O)O
parameter: CC50

compound | observedMeasurement
C/C=C1\NC(=O)[C@H](Cc2ccc(Cl)c(Cl)c2)NC(=O)[C@@H](C(C)C)NC(=O)[C@@H]([C@@H](C)CC)NC(=O)[C@H](NC(=O)[C@H](NC(=O)[C@H](CCCN)NC(=O)[C@H]2CCCN2C(=O)[C@H](NC(=O)[C@@H](NC(=O)[C@@H](NC(=O)[C@H](NC(=O)CC[C@@H](C)CC)C(C)C)[C@@H](C)O)C(C)C)C(C)C)[C@@H](C)CC)[C@@H](C)OC(=O)[C@H](C(C)C)NC1=O [Compound 70, [Phe(3,4-Cl2)^3, (4S)-MeHex^14]-KF] | 3.42 µM

Now look at this one.
Look up CC50 of C/C=C1\NC(=O)[C@H](Cc2ccccc2)NC(=O)[C@@H](C(C)C)NC(=O)[C@@H]([C@@H](C)CC)NC(=O)[C@H](NC(=O)[C@H](NC(=O)[C@H](CCCN)NC(=O)[C@H]2CCCN2C(=O)[C@H](NC(=O)[C@@H](NC(=O)[C@H](CCC(N)=O)NC(=O)CCCC(C)C)C(C)C)C(C)C)[C@@H](C)CC)[C@@H](C)OC(=O)[C@H](C(C)C)NC1=O [Compound 58, [Gln^12, noD-Val^13]-KF] ({Hexanoyl(5-Me)}-QV[dV][dP][Orn][d(aIle)][d(aThr)][d(aIle)][dV]F[Dhb]V; ester 7-C) and report it.
≥ 7.11 µM
